Target: T1, T11 (Tn-MUC1) (PAPGSTAPPAHGVT(α-GalNAc)SAPDT(α-GalNAc)RPAPG-OH)
T1 peptide: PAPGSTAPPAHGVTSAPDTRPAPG
Assay: glycopeptide array
Criterion: EC50 strictly under 0.1 µg/mL. Met: 1 (yes). Not met: 0 (no).

{"BINDER": "142 (antibody, V domains shown) VH: QVQLVQSGAEVKKPGASVMLSCKASGYIFTSYYIQWVRQAPGQGLEWMGVVNPYDGSTNYAQKFQGRVSITRDTSTSTVFMELNSLRSEDTAVYYCARDSMLGHVIFDFWGQGTLVTVSS", "LABEL_VALUE": "0 (no)"}
{"BINDER": "17 (antibody, V domains shown) VH: QVQLVQSGAEVKKPGASVRVSCKASGYPFINYYIQWVRQAPGQGLEWMGVVNPYDGSTNYAQKFQGRVSITRDASTSTVFMELNSLRSEDTAVYYCARDSMLGHVIFDFWGQGTLVTVSS", "LABEL_VALUE": "0 (no)"}
{"BINDER": "154 (antibody, V domains shown) VH: QVQLVQSGAEVKKSGASVKVSCKASGYIFTSYYIQWVRQAPGQGLEWMGVINPFDGSTDYAQKFQGRVTVTRDTSTTTVFMELSSLRSEDTAVYYCARDNMLGYVLFDYWGQGTLVTVSS", "LABEL_VALUE": "0 (no)"}
{"BINDER": "49 (antibody, V domains shown) VH: QVQLVESGAEVKKPGASVKVSCKASGYTFTRYYLHWVRQAPGQGLEWMGVINPYGGATNYAQKFQGRVTLTRDTSTSTVYMELNSLRSEDTAVYFCARDAMEGNSYFDHWGPGTLVTVSS", "LABEL_VALUE": "0 (no)"}
{"BINDER": "86 (antibody, V domains shown) VH: QVQLVQSGAEVKKPGASVKVSCKASGYPFINYYIQWVRQAPGQGLEWMGVINPFDGSTNYAQKFQGRVTVTRDTSTSTVFMDLSSLRSEDTAVYYCARDNMIGYVLFDYWGQGTLVTVSS", "LABEL_VALUE": "1 (yes)"}
{"BINDER": "206 (antibody, V domains shown) VH: QVQLVQSGAEVKKPGASVRVSCKASGYPFINYYIQWVRQAPGQGLEWMGVINPFDGSTNYAQKFQGRVTVTRDTSTSTVFMDLNSLRSEDTAVYYCARDSMIGYVLFDFWGQGTLVTVSS", "LABEL_VALUE": "1 (yes)"}
{"BINDER": "98 (antibody, V domains shown) VH: QVQLVQSGAEVKKPGASVKVSCKASGYTFTSYYIQWLRQAPGQGLEWMGVINPTGGATNYAQKFQGRVTMTRETSTSMVHMELSSLRSEDTAVYYCARDYMRGYVVFDYWGQGTLVTVSS", "LABEL_VALUE": "0 (no)"}
{"BINDER": "134 (antibody, V domains shown) VH: QVQLVQSGAEVKKPGASVEVSCKASGYTFINYYIHWVRQAPGQGLEWMGVINPFDGSTNYAQKFQGRVTVTRDTSTSTVFLDLSSLRPEDTAVYYCARDSMIGYVLFDYWGQGTLVTVSS", "LABEL_VALUE": "0 (no)"}
